test: RP, Agilent ZORBAX RRHD Eclipse Plus C18, 50 × 2.1 mm, 1.8 µm, 30 °C, 0.4 mL/min, estimated dead time 0.28 min; A: water + 0.1% formic acid, pH 3; B: acetonitrile + 0.1% formic acid, pH 3; gradient (min/%B) 0/1 5/10 8/25 9.1/99 10/99 12/1; settings: stereoisomer not certain
observed.property: LC retention time (min)
Output spec: scalar in min, unitless text.

Known LC retention time results, listed for orientation:
molecule	result.unit	recorded.number
COc1cc(C(=O)O)ccc1O [Vanillic acid]	min	4.25
O=C(O)c1ccc(O)cc1 [4-Hydroxybenzoic acid]	min	3.9
O=C(O)CCc1ccc(O)c(O)c1 [Dihydrocaffeic acid]	min	5.05
O=S(=O)(O)Oc1c(O)cccc1O [Pyrogallol 2-O-sulfate]	min	2.36
O=Cc1ccc(O)cc1 [4-Hydroxybenzaldehyde]	min	5.23

What measured LC retention time goes with O=C(O)C1OC(Oc2c(-c3ccc(O)cc3)oc3cc(O)cc(O)c3c2=O)C(O)C(O)C1O (centres undefined) [Kaempferol-3-O-glucuronide] ?
8.37

What measured LC retention time goes with O=C(NC(O)C(=O)O)c1ccccc1 (stereo not drawn) [Alpha-hydroxyhippuric acid] ?
2.97

What measured LC retention time goes with O=C(O)c1ccc(O)c(OC2OC(C(=O)O)C(O)C(O)C2O)c1 (centres undefined) [Protocatechuic acid-3-O-glucuronide] ?
2.8

What measured LC retention time goes with COc1cc(-c2oc3cc(O)cc(O)c3c(=O)c2O)ccc1O [Isorhamnetin] ?
9.19

* * *

assay: RP, Waters ACQUITY UPLC HSS T3, 100 × 2.1 mm, 50 °C; A: water + 0.1% formic acid, pH 3; B: 30% methanol + 70% acetonitrile + 0.1% formic acid, pH 3; gradient (min/%B) 0/5 1/8 2/15 3/40 4/70 4.5/100 5/100 6.4/100 6.6/5 6.8/5 7/5; conditions: stereoisomer not certain
Where a name gives a salt, the structure may show the parent alone.
observed.property: LC retention time

molecule	LC retention time
CC(C)c1cc2c(c(O)c1O)C13CCCC(C)(C)C1CC2OC3=O (configuration not stated) [Carnosol]	4.52 min
O=C(O)C1CCCCN1 (single isomer, unassigned; (+)) [(+)-Pipecolinic acid]	0.617 min
O=C1OC(C(O)CO)C(O)=C1O (configuration not stated) [Ascorbic acid]	0.601 min
OCC1OC(Oc2c[nH]c3ccccc23)C(O)C(O)C1O (stereo not drawn) [Indoxyl beta-d-glucoside]	2.92 min
Cc1cccc(OS(=O)(=O)O)c1 [m-Cresol sulfate]	3.44 min
O=C(O)C=Cc1ccc(O)cc1O [2,4-Dihydroxycinnamic acid]	3.08 min
CC(=O)Nc1c(N)[nH]c(=O)n(C)c1=O [AAMU]	0.681 min
O=C(OC1OC(C(=O)O)C(O)C(O)C1O)c1c[nH]c2ccccc12 (configuration not stated) [3-Indole carboxylic acid glucuronide]	3.36 min

What measured LC retention time goes with O=C(O)C=Cc1ccc(O)cc1 [p-Coumaric acid] ?
3.45 min

What measured LC retention time goes with O=S(=O)(O)Oc1ccccc1O [Catechol O-sulfate] ?
2.26 min

What measured LC retention time goes with O=C(O)CCc1c[nH]c2ccccc12 [3-Indolepropionic acid] ?
3.76 min

* * *

Measured LC retention time, listed per entry.
test: RP, Waters Atlantis T3, 100 × 2.1 mm, 3 µm, 40 °C, 0.3 mL/min, estimated dead time 0.73 min; A: water + 0.1% trifluoroacetic acid, pH 2; B: acetonitrile + 0.1% trifluoroacetic acid, pH 2; gradient (min/%B) 0/10 1/10 6/40 7/50 8/50 14/70 16/80 20/10 25/10; details: stereoisomer not certain
Output spec: scalar in min, unitless text.

molecule	LC retention time / min
O=c1cc(-c2ccc(O)c(O)c2)oc2cc(OC3OC(CO)C(O)C(O)C3O)cc(O)c12 (stereo not drawn) [Luteolin 7-glucoside]	7.79
O=C(OC1Cc2c(O)cc(O)cc2OC1c1cc(O)c(O)c(O)c1)c1cc(O)c(O)c(O)c1 (single isomer, unassigned; (-)) [(-)-Epigallocatechin gallate]	6.14
O=C(O)c1cccc(O)c1 [3-Hydroxybenzoic acid]	5.01
CC(C)c1cc2c(c(O)c1O)C13CCCC(C)(C)C1C(OC3=O)C2O (stereo not drawn)	11.8
O=C(O)C=Cc1ccc(O)cc1	6.73

What measured LC retention time goes with O=C(O)c1cccc(O)c1O [2,3-Dihydroxybenzoic acid] ?
4.79

What measured LC retention time goes with O=c1c(O)c(-c2ccc(OC3OC(CO)C(O)C(O)C3O)c(O)c2)oc2cc(O)cc(O)c12 (stereo not drawn) [Quercetin 4-O-glucoside] ?
7.94

What measured LC retention time goes with "Oc1cccc(O)c1O" ?
1.93

* * *

assay: RP, 150 × 2.1 mm, 2.6 µm, 40 °C, 0.35 mL/min, estimated dead time 0.94 min; A: water + 0.1% formic acid, pH 3; B: acetonitrile + 0.1% formic acid, pH 3; gradient (min/%B) 0/0 1/0 12.5/100 14/100 14.2/0 15/0; details: stereoisomer not certain
Kindly apply the following: Y if LC retention time is less than 6 min, N in every other case.

// known answers, use as guide
molecule	category
COc1cc(CCC(=O)O)cc(OC)c1OC	N
COc1ccc(C2CC(=O)c3c(O)cc(O)cc3O2)cc1O (stereo not given)	N

# strict comparison: is reported LC retention time < 6 min? input = NC(=O)Cc1c[nH]c2ccccc12 [3-Indoleacetamide]
Y

* * *

experiment: RP, Agilent ZORBAX Eclipse XDB-C18, 100 × 2.1 mm, 1.8 µm, 50 °C, 0.4 mL/min, estimated dead time 0.55 min; A: water + 0.1% formic acid, pH 3; B: methanol + 0.1% formic acid, pH 3; gradient (min/%B) 0/2 10/100 14.5/100 14.51/2 16.5/2; settings: stereoisomer not certain
Measured log10(LC retention time), listed per entry.
In our notation, the value equals log10 of LC retention time in min.

Known log10(LC retention time) results, listed for orientation:
molecule	log10(LC retention time)
Cn1c(=O)c2[nH]cnc2n(C)c1=O	0.48
O=C(O)CC(O)(CC(=O)O)C(=O)O	0.04
O=c1c(-c2ccc(O)cc2)coc2cc(O)cc(O)c12	0.82
COc1cc(/C=C/C(=O)O)ccc1O	0.67
O=C(O)CCc1ccc(O)c(O)c1 [Dihydrocaffeic acid]	0.52
COc1cc(C=CC(=O)CC(=O)C=Cc2ccc(O)c(OC)c2)ccc1O	0.91
O=S(=O)(O)Oc1ccccc1O [Catechol O-sulfate]	0.32
O=C(O)Cc1cccc(O)c1 [3-hydroxyphenylacetic acid]	0.55

What measured log10(LC retention time) goes with "Cn1c(=O)c2c(ncn2C)n(C)c1=O" ?
0.56

What measured log10(LC retention time) goes with "COc1cc(CC(=O)O)ccc1O" ?
0.57

What measured log10(LC retention time) goes with "O=c1ccc2c(O)c3ccoc3cc2o1" ?
0.78

What measured log10(LC retention time) goes with Oc1cc(O)c2c(c1)OC1(c3ccc(O)c(O)c3)Oc3cc(O)c4c(c3C2C1O)OC(c1ccc(O)c(O)c1)C(O)C4 (centres undefined) ?
0.63

What measured log10(LC retention time) goes with "COc1cc(-c2oc3cc(O)cc(O)c3c(=O)c2O)ccc1O" ?
0.85

* * *

assay: RP, Agilent InfinityLab Poroshell 120 EC-C18, 100 × 3 mm, 2.7 µm, 25 °C, 0.4 mL/min, estimated dead time 1.1 min; A: water + 0.1% formic acid, pH 3; B: acetonitrile + 0.1% formic acid, pH 3; gradient (min/%B) 0/5 10/25 20/40 24/90 25/90 26/5 30/5; settings: stereoisomer not certain
Kindly apply the following: Criterion met if LC retention time is less than 10 min, Criterion not met in every other case.

compound	category
O=C(O)Cc1ccc(O)cc1 [4-Hydroxyphenylacetic acid]	Criterion met

# strict comparison: is reported LC retention time < 10 min? input = "O=c1c(-c2ccc(O)cc2)coc2cc(O)ccc12"
Criterion not met

# strict comparison: is reported LC retention time < 10 min? input = O=C(O)C1OC(Oc2ccc3c(=O)c(-c4ccc(O)cc4)coc3c2)C(O)C(O)C1O (stereo not drawn) [Daidzein 7-O-glucuronide]
Criterion met

# strict comparison: is reported LC retention time < 10 min? input = O=C(O)C1OC(Oc2ccc(-c3coc4cc(O)ccc4c3=O)cc2)C(O)C(O)C1O (stereo not drawn) [Daidzein 4'-O-glucuronide]
Criterion met

# strict comparison: is reported LC retention time < 10 min? input = OCCc1ccc(O)c(O)c1 [Hydroxytyrosol]
Criterion met

# strict comparison: is reported LC retention time < 10 min? input = O=C(O)C1OC(Oc2ccc3c(c2)oc(=O)c2ccccc23)C(O)C(O)C1O (stereo not drawn) [Urolithin B-3-O-glucuronide]
Criterion not met

# strict comparison: is reported LC retention time < 10 min? input = O=C1CC(c2ccc(O)cc2)Oc2cc(O)cc(O)c21 (stereo not drawn)
Criterion not met

# strict comparison: is reported LC retention time < 10 min? input = "O=c1oc2cc(O)ccc2c2cc(O)c(O)cc12"
Criterion not met
